The origin of these recorded values is ChEMBL document CHEMBL5385903.

Target: Metallo-beta-lactamase type 2 (Bacteria, UniProt C7C422)
Sequence (C7C422 whole entry): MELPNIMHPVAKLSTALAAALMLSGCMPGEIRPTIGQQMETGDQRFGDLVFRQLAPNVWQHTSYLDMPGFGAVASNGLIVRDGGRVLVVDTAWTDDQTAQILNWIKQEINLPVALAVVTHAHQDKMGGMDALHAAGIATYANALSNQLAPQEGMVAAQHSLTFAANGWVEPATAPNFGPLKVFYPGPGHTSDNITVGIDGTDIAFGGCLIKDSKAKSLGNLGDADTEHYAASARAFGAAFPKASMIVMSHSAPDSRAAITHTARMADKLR
Assay: Inhibition of Metallo-beta-lactamase NDM-1 (unknown origin) using nitrocefin as substrate incubated for 5 to 10 mins by spectramax reader analysis
MEASUREMENT NAME: IC50
Give the number first and the unit second.

stdin: Requested read-out: IC50. Entry: N[C@@H](CN[C@@H](CN[C@@H](CC(=O)O)C(=O)O)C(=O)O)C(=O)O
stdout: 4.1 µM

====

Molecular target: Beta-lactamase NDM-1 (Escherichia coli, UniProt E5KIY2)
Test: Inhibition of Escherichia coli NDM-1 expressed in Escherichia coli BL21 (DE3) using nitrocefin as substrate by microplate reader analysis
MEASUREMENT NAME: IC50 (µM)
One number for each entry, in µM.

stdin: // map COc1cccc(-c2ccc(NC(=O)C3=C(C(=O)O)CCC3)c(F)c2)c1 to recorded IC50 (system: Beta-lactamase NDM-1 (Escherichia coli, UniProt E5KIY2))
stdout: 13.8
